Species on record: Homo sapiens
Method Notes: Selectivity ratio of IC50 for human kappa opioid receptor to IC50 for human NOP receptor
Measure Name: Ratio IC50

// known answers, use as guide
| Smiles String | Ratio IC50 |
| --- | --- |
| Cc1cc(N)c2cc(NC(=O)c3ccccc3COc3ccc(CNCCCCNCc4ccc(OCc5ccccc5C(=O)Nc5ccc6nc(C)cc(N)c6c5)cc4)cc3)ccc2n1 | 27 |
| Cc1cc(N)c2cc(NC(=O)c3ccccc3COc3ccc(CNCCCCCN)cc3)ccc2n1 | 18 |
| Cc1cc(N)c2cc(NC(=O)c3ccccc3COc3ccc(CNCCCCCCN)cc3)ccc2n1 | 1.5 |
| Cc1cc(N)c2cc(NC(=O)c3ccccc3COc3ccc(CNCCCCCNCc4ccc(OCc5ccccc5C(=O)Nc5ccc6nc(C)cc(N)c6c5)cc4)cc3)ccc2n1 | 28 |
| Cc1cc(N)c2cc(NC(=O)c3ccccc3COc3ccc(CNCCCNCc4ccc(OCc5ccccc5C(=O)Nc5ccc6nc(C)cc(N)c6c5)cc4)cc3)ccc2n1 | 177 |

I: CCCCCCCCCNCc1ccc(OCc2ccccc2C(=O)Nc2ccc3nc(C)cc(N)c3c2)cc1
II: Cc1cc(N)c2cc(NC(=O)c3ccccc3COc3ccc(CNCCCCN)cc3)ccc2n1
Prompt line: Given the listed items, does I or II have the lesser reported Ratio IC50? Please respond with the label that marks your chosen entry.
Response line: II
(II: 7.2, I: 13)

P: CCCCCCCCNCc1ccc(OCc2ccccc2C(=O)Nc2ccc3nc(C)cc(N)c3c2)cc1
Q: Cc1cc(N)c2cc(NC(=O)c3ccccc3COc3ccc(CNCCCCCCNCc4ccc(OCc5ccccc5C(=O)Nc5ccc6nc(C)cc(N)c6c5)cc4)cc3)ccc2n1
Prompt line: Given the listed items, does P or Q have the lesser reported Ratio IC50? Please respond with the label that marks your chosen entry.
Response line: P
(P: 15, Q: 30)

P: CCCCNCc1ccc(OCc2ccccc2C(=O)Nc2ccc3nc(C)cc(N)c3c2)cc1
Q: CCCNCc1ccc(OCc2ccccc2C(=O)Nc2ccc3nc(C)cc(N)c3c2)cc1
R: Cc1cc(N)c2cc(NC(=O)c3ccccc3COc3ccc(CNCCCCCCCCCCN)cc3)ccc2n1
S: CCCCCCNCc1ccc(OCc2ccccc2C(=O)Nc2ccc3nc(C)cc(N)c3c2)cc1
T: CCc1ccc(OCc2ccccc2C(=O)Nc2ccc3nc(C)cc(N)c3c2)cc1
Prompt line: Arrange these compounds by their Ratio IC50, starting with the largest number. Give the order by naming the labels one after another as requested.
Response line: T, R, Q, P, S
(T: 250, R: 86, Q: 45, P: 10, S: 1.2)

I: Cc1cc(N)c2cc(NC(=O)c3ccccc3COc3ccc(CNCCCCCCCCCN)cc3)ccc2n1
II: CCCCCCCCCCNCc1ccc(OCc2ccccc2C(=O)Nc2ccc3nc(C)cc(N)c3c2)cc1
III: Cc1cc(N)c2cc(NC(=O)c3ccccc3COc3ccc(CNCCCCCCCN)cc3)ccc2n1
Prompt line: Arrange these compounds by their Ratio IC50, starting with the largest number. Give the order by naming the labels one after another as requested.
Response line: I, II, III
(I: 40, II: 15, III: 5.7)

a: Cc1cc(N)c2cc(NC(=O)c3ccccc3COc3ccc(CNCCCCCCCCCNCc4ccc(OCc5ccccc5C(=O)Nc5ccc6nc(C)cc(N)c6c5)cc4)cc3)ccc2n1
b: CCCCCNCc1ccc(OCc2ccccc2C(=O)Nc2ccc3nc(C)cc(N)c3c2)cc1
c: Cc1cc(N)c2cc(NC(=O)c3ccccc3COc3ccc(CNCCCCCCCCN)cc3)ccc2n1
Prompt line: Your job: order these 3 records by Ratio IC50, ascending. Give the order by naming the labels one after another as requested.
Response line: c, b, a
(c: 8.6, b: 13, a: 36)

----------
Entries with their measured pIC50, system Nociceptin receptor (Homo sapiens, UniProt P41146):
pIC50: −log10 of the molar value.
Measure Name: pIC50

| Smiles String | Quantitative Readout |
| --- | --- |
| Cc1cc(N)c2cc(NC(=O)c3ccccc3COc3ccc(CNCCCCCCN)cc3)ccc2n1 | 5.96 |
| Cc1cc(N)c2cc(NC(=O)c3ccccc3COc3ccc(/C=N/CCCCCCCCCC/N=C/c4ccc(OCc5ccccc5C(=O)Nc5ccc6nc(C)cc(N)c6c5)cc4)cc3)ccc2n1 | 7.09 |
| CCCCCCCCCNCc1ccc(OCc2ccccc2C(=O)Nc2ccc3nc(C)cc(N)c3c2)cc1 | 6.52 |

a: Cc1cc(N)c2cc(NC(=O)c3ccccc3COc3ccc(/C=N/CCCCC/N=C/c4ccc(OCc5ccccc5C(=O)Nc5ccc6nc(C)cc(N)c6c5)cc4)cc3)ccc2n1
b: Cc1cc(N)c2cc(NC(=O)c3ccccc3COc3ccc(/C=N/CCCCCC/N=C/c4ccc(OCc5ccccc5C(=O)Nc5ccc6nc(C)cc(N)c6c5)cc4)cc3)ccc2n1
Prompt line: Identify the entry with the larger pIC50. Options: a and b Please respond with the label that marks your chosen entry.
Response line: a
(a: 7.29, b: 7.08)

a: CCCCNCc1ccc(OCc2ccccc2C(=O)Nc2ccc3nc(C)cc(N)c3c2)cc1
b: Cc1cc(N)c2cc(NC(=O)c3ccccc3COc3ccc(CNCCCCCNCc4ccc(OCc5ccccc5C(=O)Nc5ccc6nc(C)cc(N)c6c5)cc4)cc3)ccc2n1
Prompt line: Given the listed items, does a or b have the lesser reported pIC50? Please respond with the label that marks your chosen entry.
Response line: a
(a: 5.95, b: 7.12)

a: Cc1cc(N)c2cc(NC(=O)c3ccccc3COc3ccc(/C=N/CCCC/N=C/c4ccc(OCc5ccccc5C(=O)Nc5ccc6nc(C)cc(N)c6c5)cc4)cc3)ccc2n1
b: CCCCCCCCCCNCc1ccc(OCc2ccccc2C(=O)Nc2ccc3nc(C)cc(N)c3c2)cc1
Prompt line: Given the listed items, does a or b have the lesser reported pIC50? Please respond with the label that marks your chosen entry.
Response line: b
(b: 6.39, a: 7.45)

----------
Target Or System: Mu-type opioid receptor (Homo sapiens, UniProt P35372)
Sequence (P35372 whole entry): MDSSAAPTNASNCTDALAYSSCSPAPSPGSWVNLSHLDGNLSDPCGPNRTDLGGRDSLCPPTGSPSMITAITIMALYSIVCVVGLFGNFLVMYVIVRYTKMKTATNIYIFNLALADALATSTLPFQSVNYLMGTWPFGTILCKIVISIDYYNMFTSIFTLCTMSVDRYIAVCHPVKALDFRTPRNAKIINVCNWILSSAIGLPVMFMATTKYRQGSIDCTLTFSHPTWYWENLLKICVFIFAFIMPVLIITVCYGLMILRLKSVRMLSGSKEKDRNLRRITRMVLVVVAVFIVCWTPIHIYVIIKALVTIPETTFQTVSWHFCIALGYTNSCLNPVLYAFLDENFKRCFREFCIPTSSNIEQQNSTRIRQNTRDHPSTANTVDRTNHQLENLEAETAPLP
Method Notes: Displacement of [3H]-naltrindole from human mu opioid receptor expressed in CHO cells after 2 hrs by scintillation counting
pIC50: −log10 of the molar value.
Measure Name: pIC50

| Smiles String | Quantitative Readout |
| --- | --- |
| Cc1cc(N)c2cc(NC(=O)c3ccccc3COc3ccc(CNCCCCCN)cc3)ccc2n1 | 5.31 |
| Cc1cc(N)c2cc(NC(=O)c3ccccc3COc3ccc(CNCCCCCCCCN)cc3)ccc2n1 | 6.49 |

a: CCCCCCCCCNCc1ccc(OCc2ccccc2C(=O)Nc2ccc3nc(C)cc(N)c3c2)cc1
b: Cc1cc(N)c2cc(NC(=O)c3ccccc3COc3ccc(CNCCCNCc4ccc(OCc5ccccc5C(=O)Nc5ccc6nc(C)cc(N)c6c5)cc4)cc3)ccc2n1
Prompt line: Identify the entry with the larger pIC50. Options: a and b Please respond with the label that marks your chosen entry.
Response line: b

----------
pIC50: −log10 of the molar value.
Entries with their measured pIC50, system Nociceptin receptor (Homo sapiens, UniProt P41146):
Measure Name: pIC50

| Smiles String | Target Or System | pIC50 |
| --- | --- | --- |
| Cc1cc(N)c2cc(NC(=O)c3ccccc3COc3ccc(CN)cc3)ccc2n1 | Nociceptin receptor (Homo sapiens, UniProt P41146) | 6.94 |

1: Cc1cc(N)c2cc(NC(=O)c3ccccc3COc3ccc(CNCCCCCCNCc4ccc(OCc5ccccc5C(=O)Nc5ccc6nc(C)cc(N)c6c5)cc4)cc3)ccc2n1
2: CCCCCCCCCC/N=C/c1ccc(OCc2ccccc2C(=O)Nc2ccc3nc(C)cc(N)c3c2)cc1
Prompt line: Given the listed items, does 1 or 2 have the lesser reported pIC50? Please respond with the label that marks your chosen entry.
Response line: 2
(2: 6.73, 1: 7.14)

----------
Organism: Homo sapiens
Method Notes: Selectivity ratio of IC50 for human kappa opioid receptor to IC50 for human NOP receptor
Measure Name: Ratio IC50

| Smiles String | Quantitative Readout |
| --- | --- |
| Cc1cc(N)c2cc(NC(=O)c3ccccc3COc3ccc(CNCCCCCCCCNCc4ccc(OCc5ccccc5C(=O)Nc5ccc6nc(C)cc(N)c6c5)cc4)cc3)ccc2n1 | 37 |

A: CCCCCCCNCc1ccc(OCc2ccccc2C(=O)Nc2ccc3nc(C)cc(N)c3c2)cc1
B: Cc1cc(N)c2cc(NC(=O)c3ccccc3COc3ccc(CNCCCCCCCCCCNCc4ccc(OCc5ccccc5C(=O)Nc5ccc6nc(C)cc(N)c6c5)cc4)cc3)ccc2n1
C: Cc1cc(N)c2cc(NC(=O)c3ccccc3COc3ccc(CNCCCN)cc3)ccc2n1
Prompt line: Arrange these compounds by their Ratio IC50, starting with the largest number. Give the order by naming the labels one after another as requested.
Response line: B, C, A
(B: 31, C: 14, A: 6.2)

----------
Organism: Homo sapiens
Method Notes: Selectivity ratio of IC50 for human mu opioid receptor to IC50 for human NOP receptor
Measure Name: Ratio IC50

| Smiles String | Quantitative Readout |
| --- | --- |
| Cc1cc(N)c2cc(NC(=O)c3ccccc3COc3ccc(CNCCCCCNCc4ccc(OCc5ccccc5C(=O)Nc5ccc6nc(C)cc(N)c6c5)cc4)cc3)ccc2n1 | 46 |
| Cc1cc(N)c2cc(NC(=O)c3ccccc3COc3ccc(CNCCCCCCCCCCN)cc3)ccc2n1 | 13 |
| CCCCCCCCCNCc1ccc(OCc2ccccc2C(=O)Nc2ccc3nc(C)cc(N)c3c2)cc1 | 11 |
| CCCCCCNCc1ccc(OCc2ccccc2C(=O)Nc2ccc3nc(C)cc(N)c3c2)cc1 | 2.6 |

P: Cc1cc(N)c2cc(NC(=O)c3ccccc3COc3ccc(CNCCCCCCCNCc4ccc(OCc5ccccc5C(=O)Nc5ccc6nc(C)cc(N)c6c5)cc4)cc3)ccc2n1
Q: CCCNCc1ccc(OCc2ccccc2C(=O)Nc2ccc3nc(C)cc(N)c3c2)cc1
R: CCCCCCCCNCc1ccc(OCc2ccccc2C(=O)Nc2ccc3nc(C)cc(N)c3c2)cc1
S: CCCCCCCNCc1ccc(OCc2ccccc2C(=O)Nc2ccc3nc(C)cc(N)c3c2)cc1
Prompt line: Arrange these compounds by their Ratio IC50, starting with the largest number. Give the order by naming the labels one after another as requested.
Response line: Q, P, R, S
